# Test system: MCF7 (MCF7/ATCC) cells
# measurement_notes: Cell viability (cell kill) assay, nuclear counts
# Assay type: cell-based
# condition_details: MCF7/ATCC; Table 20
endpoint_name: % Kill (%)

>  <molecule>
H1H6953N-mc-VC-PAB-MeNHC3-May (conjugate) VH: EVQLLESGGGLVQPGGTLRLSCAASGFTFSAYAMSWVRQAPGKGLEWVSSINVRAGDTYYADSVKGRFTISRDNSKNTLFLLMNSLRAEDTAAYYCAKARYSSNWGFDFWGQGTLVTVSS VL: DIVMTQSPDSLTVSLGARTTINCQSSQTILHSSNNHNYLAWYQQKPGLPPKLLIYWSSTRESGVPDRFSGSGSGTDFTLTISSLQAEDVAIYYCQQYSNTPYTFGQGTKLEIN

>  <endpoint_name>
% Kill

>  <reading_unit>
%

>  <test_result>
60

$$$$
>  <molecule>
H1H6782P-mc-VC-PAB-MeNHC3-May (conjugate) VH: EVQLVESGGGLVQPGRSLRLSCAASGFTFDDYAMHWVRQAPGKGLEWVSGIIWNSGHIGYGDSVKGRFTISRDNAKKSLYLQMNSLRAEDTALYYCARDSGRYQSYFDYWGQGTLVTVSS VL: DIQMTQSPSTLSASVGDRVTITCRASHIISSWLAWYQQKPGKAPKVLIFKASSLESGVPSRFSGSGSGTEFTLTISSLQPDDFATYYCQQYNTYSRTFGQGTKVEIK

>  <endpoint_name>
% Kill

>  <reading_unit>
%

>  <test_result>
50

$$$$
>  <molecule>
H1H6958N2-DM1: anti-PRLR antibody H1H6958N2 conjugated to DM1 through an SMCC linker (conjugate) VH: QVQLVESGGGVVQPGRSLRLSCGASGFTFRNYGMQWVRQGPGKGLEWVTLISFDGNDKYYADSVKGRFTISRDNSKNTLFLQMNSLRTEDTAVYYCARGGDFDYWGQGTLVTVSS VL: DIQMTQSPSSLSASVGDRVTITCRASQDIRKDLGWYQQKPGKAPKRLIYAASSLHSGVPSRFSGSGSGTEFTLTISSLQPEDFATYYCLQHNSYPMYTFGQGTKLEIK

>  <endpoint_name>
% Kill

>  <reading_unit>
%

>  <test_result>
70

$$$$
>  <molecule>
H1H6765P-mc-VC-PAB-MMAE (conjugate) VH: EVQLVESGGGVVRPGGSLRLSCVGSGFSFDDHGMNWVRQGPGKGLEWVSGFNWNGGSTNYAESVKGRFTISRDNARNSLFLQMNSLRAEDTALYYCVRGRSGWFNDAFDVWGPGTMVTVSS VL: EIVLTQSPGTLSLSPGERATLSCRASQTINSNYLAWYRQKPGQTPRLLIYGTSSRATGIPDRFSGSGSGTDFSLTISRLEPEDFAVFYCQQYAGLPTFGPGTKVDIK

>  <endpoint_name>
% Kill

>  <reading_unit>
%

>  <test_result>
40

$$$$
>  <molecule>
H1H6975P-mc-VC-PAB-MMD (conjugate) VH: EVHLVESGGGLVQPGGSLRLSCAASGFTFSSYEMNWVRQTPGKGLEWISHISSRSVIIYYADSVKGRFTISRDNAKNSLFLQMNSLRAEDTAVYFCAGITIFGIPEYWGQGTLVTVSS VL: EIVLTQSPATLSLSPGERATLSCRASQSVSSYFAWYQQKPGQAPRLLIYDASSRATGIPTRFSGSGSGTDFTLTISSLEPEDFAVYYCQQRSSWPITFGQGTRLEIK

>  <endpoint_name>
% Kill

>  <reading_unit>
%

>  <test_result>
50

$$$$
